- Target Entity: BMPR2 (Homo sapiens, UniProt Q13873)
- Sequence (Q13873 27-1038): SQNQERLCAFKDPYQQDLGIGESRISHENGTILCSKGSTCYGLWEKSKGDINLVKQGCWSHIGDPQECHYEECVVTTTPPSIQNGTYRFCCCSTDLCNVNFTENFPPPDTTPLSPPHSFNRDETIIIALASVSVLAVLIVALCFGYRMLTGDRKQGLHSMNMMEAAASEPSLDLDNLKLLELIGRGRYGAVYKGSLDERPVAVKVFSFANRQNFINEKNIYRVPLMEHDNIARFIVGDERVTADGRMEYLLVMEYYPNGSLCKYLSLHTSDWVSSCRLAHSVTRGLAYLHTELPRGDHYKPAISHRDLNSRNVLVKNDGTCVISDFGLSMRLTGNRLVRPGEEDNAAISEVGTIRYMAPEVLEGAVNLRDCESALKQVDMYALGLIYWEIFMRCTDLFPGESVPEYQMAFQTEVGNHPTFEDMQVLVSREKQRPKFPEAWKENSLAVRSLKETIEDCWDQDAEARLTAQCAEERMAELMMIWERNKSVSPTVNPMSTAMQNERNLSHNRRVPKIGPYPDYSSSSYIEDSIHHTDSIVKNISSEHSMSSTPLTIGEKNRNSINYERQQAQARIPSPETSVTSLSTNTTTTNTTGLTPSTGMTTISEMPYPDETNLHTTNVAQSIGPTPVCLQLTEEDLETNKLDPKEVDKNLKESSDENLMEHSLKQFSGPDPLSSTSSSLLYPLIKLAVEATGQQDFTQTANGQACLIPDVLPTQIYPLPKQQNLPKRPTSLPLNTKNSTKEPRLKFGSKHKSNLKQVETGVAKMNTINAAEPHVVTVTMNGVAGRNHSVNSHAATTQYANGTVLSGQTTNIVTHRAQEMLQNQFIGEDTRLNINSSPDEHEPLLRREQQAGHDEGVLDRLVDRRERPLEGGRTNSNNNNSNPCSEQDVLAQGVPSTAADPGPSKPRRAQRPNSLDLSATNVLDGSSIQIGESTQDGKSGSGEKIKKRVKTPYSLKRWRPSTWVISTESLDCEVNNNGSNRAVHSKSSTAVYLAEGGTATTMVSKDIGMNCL
- Test Description: IC50 kinase assay BMPR2
- Format: biochemical
- Experimental Parameters: read-out: IC50 for the BMP type II receptor BMPR2
Metric: IC50

# input Entry c1ccc2c(-c3cnn4cc(-c5ccc(OCCN6CCCCC6)cc5)cnc34)ccnc2c1 [JL5] : reported IC50 = ?
# output ~8 µM

* * *

- Target Entity: ALK3/BMPR1A (Homo sapiens)
- Sequence (P36894 24-532): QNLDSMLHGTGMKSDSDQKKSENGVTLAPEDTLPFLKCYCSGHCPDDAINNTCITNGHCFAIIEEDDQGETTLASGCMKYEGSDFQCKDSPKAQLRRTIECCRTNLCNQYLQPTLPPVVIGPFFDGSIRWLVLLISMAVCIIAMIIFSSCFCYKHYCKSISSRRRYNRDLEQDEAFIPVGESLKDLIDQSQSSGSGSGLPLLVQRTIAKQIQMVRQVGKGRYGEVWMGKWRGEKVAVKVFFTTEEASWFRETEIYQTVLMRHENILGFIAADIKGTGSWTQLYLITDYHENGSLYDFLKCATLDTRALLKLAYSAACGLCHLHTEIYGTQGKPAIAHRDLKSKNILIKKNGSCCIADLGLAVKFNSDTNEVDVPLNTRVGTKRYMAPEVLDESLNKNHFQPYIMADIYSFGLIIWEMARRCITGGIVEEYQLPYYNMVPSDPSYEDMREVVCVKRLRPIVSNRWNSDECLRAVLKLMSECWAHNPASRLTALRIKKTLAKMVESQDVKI
- Test Description: IC50 kinase assay ALK3
- Type: biochemical
- Experimental Parameters: read-out: IC50 ALK3/BMPR1A; ATP 10 μM
Metric: IC50

# input Identify the measured IC50 of c1ccc2c(-c3cnn4cc(-c5ccc(OCCN6CCCCC6)cc5)cnc34)ccnc2c1 for ALK3/BMPR1A (Homo sapiens).
# output < 5 nM

* * *

- Target Entity: ALK2/ACVR1 (Homo sapiens, UniProt Q04771)
- Sequence (Q04771 21-509): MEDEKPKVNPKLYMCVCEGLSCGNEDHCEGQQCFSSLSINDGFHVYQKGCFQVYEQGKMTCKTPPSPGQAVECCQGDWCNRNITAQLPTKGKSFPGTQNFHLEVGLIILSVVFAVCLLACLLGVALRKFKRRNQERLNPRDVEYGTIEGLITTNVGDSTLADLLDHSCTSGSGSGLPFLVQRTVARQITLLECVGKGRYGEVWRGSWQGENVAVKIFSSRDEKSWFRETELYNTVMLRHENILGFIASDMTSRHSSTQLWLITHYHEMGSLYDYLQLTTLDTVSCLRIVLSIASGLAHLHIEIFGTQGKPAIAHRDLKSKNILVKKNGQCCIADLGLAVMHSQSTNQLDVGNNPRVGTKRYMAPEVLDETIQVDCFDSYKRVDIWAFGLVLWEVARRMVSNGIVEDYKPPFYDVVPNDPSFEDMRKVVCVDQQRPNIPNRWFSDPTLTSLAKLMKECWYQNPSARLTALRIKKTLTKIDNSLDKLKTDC
- Test Description: IC50 kinase assay ALK2
- Format: biochemical
- Experimental Parameters: read-out: IC50 ALK2/ACVR1; ATP 10 μM
Metric: pIC50
Hey, just a heads up that pIC50 is the negative log base 10 of the concentration in molar.

# input Entry c1ccc2c(-c3cnn4cc(-c5ccc(OCCN6CCCCC6)cc5)cnc34)ccnc2c1 : reported pIC50 = ?
# output 9.00

Source of measurements: paper PMC10905627
